- Test system: K4 kissing-loop RNA reporter;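 note: bound reporter read as fluorescence of individual clusters on recovered sequencing chips by microscopy, with normalized cluster intensities fitted with a binding model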
- Assay Procedure: apparent KD of K4 kissing-loop reporter; higher = weaker reporter binding
- Assay Context: Eterna round: R107; input ligand: FMN 200 uM
Property Name: apparent KD of K4 kissing-loop reporter (nM)

- Sequence Record: "GUUACGCAUGGAAGGAGCGCUCUCAUAUUUAAUAACACAGUGAUGUUGUGAAUUUAUAUAAAGCAGGUAGGUCGCCAUGUGUAAC [Ex Arginine B K4 6]"
  Property Name: "apparent KD of K4 kissing-loop reporter"
  Observed Value: 336
- Sequence Record: "GCCGUAGAUGGAAGGAGCGUGGUCUAGAAGCACAAGUGAUGUUUGUGGUAACCUUCUGACCCACAGGUAGGUCGCCAUCUACGGC"
  Property Name: "apparent KD of K4 kissing-loop reporter"
  Observed Value: 88.4
- Sequence Record: "AUUUAAUUAACUGAUACCAGACUUAAUGUUUUGUAUAUUACUAGUGAUGUUAGUGAUUCUGUCCCUUGGCAGCAGUAUCUACUUA [JR_ExcTheophyB_Sub014]"
  Property Name: "apparent KD of K4 kissing-loop reporter"
  Observed Value: 140
